- Experiment notes: yeast display, Sf9 membrane polyspecificity reagent, FACS + sequencing; frameworks hold sequencing errors
Measurement name: polyreactivity (PSR sort gate)

INSERT INTO assay_data (biopolymer_sequence, endpoint_value) VALUES
  ('QVQLVESGGGLVQAGGSLRISCAASRSIFPLNAMGWYRQAPGKERELVAAITRSGGSTYYADSVKGRFTISRDNAKNTVYLQMNSLKPEDTAVYYCATDPEWPLPAYYYWGQGTQVTVSS', 'low polyreactivity'),
  ('QVQLVESGGGLVQAGGSLRLSCAASGRTQAFHAMGWYRQAPGKERELVAVIRNGTSTNYADSVKGRFTISRDNAKNTVYLQMNSLKPEDTAVYYCNVPYYLPSYLSGYDYWGQGTQVTVSS', 'low polyreactivity'),
  ('QVQVVESGGGLVQAGGSLRLSCAASGLIFVYYAMGWYRQAPGKERELVAGITRGGGTNYADSVKGRFTISRDNAKNSFYLQMNSLKPEDTAVYYCAADDLPGMDYWGQGTQVTVSS', 'low polyreactivity'),
  ('QVQLVESGGGLVQAGGSLRLSCAASGSIFGAYTMGWYRQAPGKEREFVAVISKGGTNTYYADSVKGRFTISRDNAKNTVYLQMNSLKPEDTAVYYCAARAYPTWRTYYYWGQGTQVTVSS', 'high polyreactivity');

Ask | What value of polyreactivity (PSR sort gate) has been reported for the following sequence? `QVQLVESGGGLVQAGGSLRLSCAASGIIFPAYAMGWYRQARGKERELVAAITSRGGSTYYADSVKGRFTISRDNAKNTVYLQMNSLKPEDTAVYYCNAAALADYDYWGQGTQVTVSS`
Reply | low polyreactivity

Ask | Continue with `QVQLVESGGGLVQAGGSLRLSCAATGRTFRIYAMGWYRQAPGKEREFVAAITWSGGRTYYADSVKGRFTISRDNAKNTVYLQMNSLKPEDTAVYYCAADPTYLRTLRFGSYDYWGQGTQVTVSS`
Reply | high polyreactivity

Ask | Continue with `QVQLVESGGGLVQAGGSLRLSCAASGITFSAYAMGWYRQAPGKERELVAAISWSGGNTYYADSVKGRFTISRDNAKNTVYLQMNSLKPEDTAVYYCAAEREAYNTWFDYWGQGTQVTVSS`
Reply | high polyreactivity

Ask | Continue with `QVQLVESGGGLVQAGGSLRLSCAASGSIIYLYAMGWYRQAPGKERELVAAITSIGGSTYADSVKGRFTISRDNAKNTVYLQMNSLKPEDTAVYYCNTDEYPLTVQVQYYYWGQGTQVTVSS`
Reply | low polyreactivity

Ask | Continue with `QVQLVESGGGLVQAGGSLRLSCAASGITFQRYAMGWYRQAPGKERELVAAISTNGGTTYYADSVKGRFTISRDNAKNTVYLQMNSLKPEDTAVYYCNAESGYVYYFRYNYLGQGTQVTVSS`
Reply | high polyreactivity

Ask | Continue with `QVQLVESGGGLVQAGGSLRLSCAASGRIFYTNAMGWSRQAPGKERELVAVISWGGDTTYYADSVKGRFTISRDNAKNTVYLQLNSLKPEDTAVYYCNADWGPTYEIYDSWGQGTQVTVSS`
Reply | low polyreactivity

###

- Experiment notes: yeast display, Sf9 membrane polyspecificity reagent, FACS + sequencing; frameworks hold sequencing errors
Measurement name: polyreactivity (PSR sort gate)

As a guide, the following entries are already answered.
INSERT INTO measurements (biopolymer_sequence, endpoint_value) VALUES
  ('QVQLVESGGGLVQAGGSLRLSCAASGSTFYGYTMGWYRQAPGKERELVAVITSGGSTYYADSVKGRFTISRDNAKNTVYLQMNSLKPEDTAVYYCAKRYGYPAYGRPWRIGRTYDYWGQGTQVTVSS', 'low polyreactivity'),
  ('QVQLVETGGGLVQAGGSLRLSCAASGSTFWYYGMGWYRQAPGKERELVAAISRRGGSTYYADSVKGRFTFSRDNAKNTVYLQMNSLKPEDTAVYYCAADRLIGDGENYYWGQGTQVTVSS', 'high polyreactivity'),
  ('QVQLVESGGGLVQAGGSLRLSCAASGFIFQVYAMGWYRQAPGKERELVASISSSGGSTYYADSVKGRFTISRDNAKNTVYLQMNSLKPEDTAVYYCAVEQRYRYWYRYRYKFLLDSDYWGQGTQVTVSS', 'high polyreactivity'),
  ('QVQLVESGGGLVQAGGSLRLSCAASGRIFLKYAMGWYRQAPGKERELVAAISSSGGSTYYADSVKGRFTISRDNAMNTVYLQMNSLKPEDTAVYYCNALYKRGSSYFIGDGYWGQGTQVTVSS', 'high polyreactivity'),
  ('QVQLVESGGGLVHAGGSLRLSCSASGSILKSYAMGWYRQAPGKERDLVAAITYRDGSTYYADSVKGRFTISRDTAKNTVYLQMISLKPEDTAVYYCASEPYWWNVFYPGYNYWGQGNQVTVSS', 'high polyreactivity');

Now consider a different sequence.
Ask | What value of polyreactivity (PSR sort gate) has been reported for the following sequence? `QVQLVESGGGLVQAGGSLRLSCAASGRIFVPNNMGWYRQAPGKERDLVAAISSGGSTYADSVKGRFTISRDNAKNTFYLQLNSLKPEDTAVYYCAVGKYGTQFTQWVRKYDYWGQGTQVTVSS`
Reply | low polyreactivity

FYI, the data here is from the nanobody polyreactivity screen of Harvey et al. (2022).
